Target: T1, recombinant human α4β1 integrin (human, UniProt P13612 34-977; P05556 21-728)
T1 construct: bought recombinant heterodimer (R&D Systems cat. 5668-A4) coated on the plate; also called rh-α4β1
T1 sequence (P13612 34-977 limits assumed, form in doubt, chain 1 of 2): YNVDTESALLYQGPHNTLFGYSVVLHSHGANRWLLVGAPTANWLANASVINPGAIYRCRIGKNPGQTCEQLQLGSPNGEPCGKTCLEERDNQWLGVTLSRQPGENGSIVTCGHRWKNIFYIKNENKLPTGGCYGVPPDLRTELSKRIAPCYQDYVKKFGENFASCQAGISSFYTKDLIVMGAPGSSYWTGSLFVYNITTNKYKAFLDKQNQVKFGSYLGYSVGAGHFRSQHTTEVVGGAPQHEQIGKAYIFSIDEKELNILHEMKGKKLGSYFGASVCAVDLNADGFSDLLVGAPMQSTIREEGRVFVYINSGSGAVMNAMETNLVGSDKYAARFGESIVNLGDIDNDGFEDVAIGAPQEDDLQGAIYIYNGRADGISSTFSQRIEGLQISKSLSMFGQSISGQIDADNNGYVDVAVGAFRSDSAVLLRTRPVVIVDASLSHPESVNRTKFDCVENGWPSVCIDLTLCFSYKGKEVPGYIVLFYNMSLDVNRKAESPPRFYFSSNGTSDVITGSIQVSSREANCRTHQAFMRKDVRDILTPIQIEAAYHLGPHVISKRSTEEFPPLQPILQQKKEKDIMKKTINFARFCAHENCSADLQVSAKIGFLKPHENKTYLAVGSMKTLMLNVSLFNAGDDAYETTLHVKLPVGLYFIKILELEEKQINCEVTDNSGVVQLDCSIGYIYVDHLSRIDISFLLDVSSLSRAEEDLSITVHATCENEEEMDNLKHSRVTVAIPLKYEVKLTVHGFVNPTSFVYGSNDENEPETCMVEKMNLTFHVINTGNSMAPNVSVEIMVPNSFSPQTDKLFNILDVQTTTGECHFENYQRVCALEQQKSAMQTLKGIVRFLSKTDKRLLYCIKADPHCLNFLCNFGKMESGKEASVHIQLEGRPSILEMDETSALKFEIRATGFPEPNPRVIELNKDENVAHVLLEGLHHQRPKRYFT
T1 sequence (P05556 21-728 limits assumed, form in doubt, chain 2 of 2): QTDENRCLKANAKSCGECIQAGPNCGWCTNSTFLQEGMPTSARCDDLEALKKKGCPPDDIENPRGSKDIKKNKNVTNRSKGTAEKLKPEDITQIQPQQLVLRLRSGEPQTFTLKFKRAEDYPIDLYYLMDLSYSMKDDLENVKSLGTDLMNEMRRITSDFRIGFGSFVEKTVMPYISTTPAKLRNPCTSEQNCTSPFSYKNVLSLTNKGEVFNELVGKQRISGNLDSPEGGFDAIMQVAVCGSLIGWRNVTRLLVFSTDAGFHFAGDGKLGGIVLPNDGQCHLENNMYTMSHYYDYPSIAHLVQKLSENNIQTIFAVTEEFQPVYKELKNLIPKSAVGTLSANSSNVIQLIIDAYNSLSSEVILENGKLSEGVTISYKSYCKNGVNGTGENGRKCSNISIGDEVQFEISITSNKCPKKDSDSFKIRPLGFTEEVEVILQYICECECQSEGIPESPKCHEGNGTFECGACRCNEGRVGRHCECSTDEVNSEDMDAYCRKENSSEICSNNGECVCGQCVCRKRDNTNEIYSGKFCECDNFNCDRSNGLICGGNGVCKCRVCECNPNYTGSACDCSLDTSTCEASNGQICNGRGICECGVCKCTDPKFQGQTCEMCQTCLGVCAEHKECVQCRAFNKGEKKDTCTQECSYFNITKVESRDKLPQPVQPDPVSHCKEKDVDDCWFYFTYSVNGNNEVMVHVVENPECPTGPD
Assay: ELISA, coated integrin, supernatant 1:10
Quantity name: Absorbance 450 nm (A450)
Answers are plain numbers, in A450.

Here's what some known entries look like.
{"columns": ["Binder", "Absorbance 450 nm (A450)"],
 "data": [
  ["A-15B08 (antibody, V domains shown, mouse hybridoma supernatant in this assay) VH: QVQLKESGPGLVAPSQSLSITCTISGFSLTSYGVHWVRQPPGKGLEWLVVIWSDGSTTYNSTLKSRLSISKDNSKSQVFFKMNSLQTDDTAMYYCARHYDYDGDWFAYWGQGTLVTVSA VL: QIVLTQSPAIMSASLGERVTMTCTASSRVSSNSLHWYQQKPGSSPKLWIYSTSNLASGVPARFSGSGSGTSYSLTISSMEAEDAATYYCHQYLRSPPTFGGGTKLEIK", 0.0855],
  ["A-4G02 (antibody, V domains shown, mouse hybridoma supernatant) VH: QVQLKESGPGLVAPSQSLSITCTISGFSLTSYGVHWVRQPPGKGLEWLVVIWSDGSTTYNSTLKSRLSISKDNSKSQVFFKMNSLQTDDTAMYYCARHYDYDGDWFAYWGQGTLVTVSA VL: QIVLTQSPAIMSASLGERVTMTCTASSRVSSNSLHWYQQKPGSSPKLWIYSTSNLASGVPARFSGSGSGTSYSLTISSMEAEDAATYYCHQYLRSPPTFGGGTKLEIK", 0.0801],
  ["A-3A08 (antibody, V domains shown, mouse hybridoma supernatant) VH: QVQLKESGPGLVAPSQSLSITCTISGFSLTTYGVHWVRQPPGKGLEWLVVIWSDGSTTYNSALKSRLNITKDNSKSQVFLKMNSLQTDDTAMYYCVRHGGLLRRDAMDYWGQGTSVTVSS VL: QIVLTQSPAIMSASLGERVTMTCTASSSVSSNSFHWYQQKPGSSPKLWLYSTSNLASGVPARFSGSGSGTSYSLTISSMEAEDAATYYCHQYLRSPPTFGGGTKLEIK", 0.0769],
  ["A-11G01 (antibody, V domains shown, mouse hybridoma supernatant) VH: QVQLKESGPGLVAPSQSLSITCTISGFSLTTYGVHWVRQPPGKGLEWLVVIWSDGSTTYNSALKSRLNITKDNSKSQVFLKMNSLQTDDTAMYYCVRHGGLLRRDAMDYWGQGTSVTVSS VL: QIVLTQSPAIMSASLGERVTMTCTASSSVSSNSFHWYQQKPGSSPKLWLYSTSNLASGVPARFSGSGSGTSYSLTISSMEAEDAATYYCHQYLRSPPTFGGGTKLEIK", 0.0843],
  ["A-14G08 (antibody, V domains shown, mouse hybridoma supernatant) VH: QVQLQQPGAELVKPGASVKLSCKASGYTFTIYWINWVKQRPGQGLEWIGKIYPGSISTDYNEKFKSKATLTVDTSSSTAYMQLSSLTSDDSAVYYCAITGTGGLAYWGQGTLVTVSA VL: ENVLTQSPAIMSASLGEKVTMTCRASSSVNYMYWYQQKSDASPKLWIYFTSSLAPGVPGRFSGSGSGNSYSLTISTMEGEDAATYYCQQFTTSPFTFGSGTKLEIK", 0.108]
]}

Could you now look at the following binder, please?
Value of measured Absorbance 450 nm for the entry A-7D06 (antibody, V domains shown, mouse hybridoma supernatant) VH: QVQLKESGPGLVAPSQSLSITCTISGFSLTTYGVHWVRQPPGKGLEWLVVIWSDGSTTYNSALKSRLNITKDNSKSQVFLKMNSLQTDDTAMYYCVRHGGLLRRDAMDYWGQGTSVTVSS VL: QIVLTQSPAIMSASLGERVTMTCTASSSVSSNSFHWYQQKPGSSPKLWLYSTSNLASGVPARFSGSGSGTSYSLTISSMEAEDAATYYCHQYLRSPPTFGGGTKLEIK : 0.0848
